# Threshold per record follows
Target: T1, GAL4 activation domain fusion (ACT) to HAB1 (UniProt Q9CAJ0 23-511, limits assumed)
T1 construct: pACT-HAB1 fusion in yeast reporter strains; also called pACT-HAB1
T1 sequence (looked up): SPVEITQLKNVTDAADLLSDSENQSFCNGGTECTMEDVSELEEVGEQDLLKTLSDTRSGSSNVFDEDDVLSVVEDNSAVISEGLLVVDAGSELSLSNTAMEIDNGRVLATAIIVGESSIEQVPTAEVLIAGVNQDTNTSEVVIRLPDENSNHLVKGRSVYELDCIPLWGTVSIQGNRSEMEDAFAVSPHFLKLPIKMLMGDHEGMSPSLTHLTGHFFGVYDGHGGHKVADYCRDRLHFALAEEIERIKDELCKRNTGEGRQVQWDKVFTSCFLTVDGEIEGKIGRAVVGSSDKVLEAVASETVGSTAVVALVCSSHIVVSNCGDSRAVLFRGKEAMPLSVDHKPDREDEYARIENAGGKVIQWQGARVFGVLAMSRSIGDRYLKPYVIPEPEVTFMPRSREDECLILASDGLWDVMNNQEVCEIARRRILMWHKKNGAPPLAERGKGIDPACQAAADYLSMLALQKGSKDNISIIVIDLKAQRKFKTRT
Test: yeast two-hybrid, X-gal; lowest mandipropamid concentration giving signal
The answer is to be given in µM; state only the numeric part.

PYR1^K59R,F108L (receptor, pBD-PYR1 fusion in yeast) MPSELTPEERSELKNSIAEFHTYQLDPGSCSSLHAQRIHAPPELVWSIVRRFDKPQTYRHFIKSCSVEQNFEMRVGCTRDVIVISGLPANTSTERLDILDDERRVTGLSIIGGEHRLTNYKSVTTVHRFEKENRIWTVVLESYVVDMPEGNSEDDTRMFADTVVKLNLQKLATVAEAMARNSGDGSGSQVT
100

Per the records, this binder ( PYR1^K59R,F108I,S122G (receptor, not shown: small tags and cut ends, pBD-PYR1 fusion in yeast) MPSELTPEERSELKNSIAEFHTYQLDPGSCSSLHAQRIHAPPELVWSIVRRFDKPQTYRHFIKSCSVEQNFEMRVGCTRDVIVISGLPANTSTERLDILDDERRVTGISIIGGEHRLTNYKGVTTVHRFEKENRIWTVVLESYVVDMPEGNSEDDTRMFADTVVKLNLQKLATVAEAMARNSGDGSGSQVT ) has Threshold equal to 10

Per the records, this binder ( PYR1^K59R,F108A,S122G,V81C (receptor, not shown: small tags and cut ends, pBD-PYR1 fusion in yeast) MPSELTPEERSELKNSIAEFHTYQLDPGSCSSLHAQRIHAPPELVWSIVRRFDKPQTYRHFIKSCSVEQNFEMRVGCTRDCIVISGLPANTSTERLDILDDERRVTGASIIGGEHRLTNYKGVTTVHRFEKENRIWTVVLESYVVDMPEGNSEDDTRMFADTVVKLNLQKLATVAEAMARNSGDGSGSQVT ) has Threshold equal to 0.25
